studyConditions: 293.15 K; 101 kPa; Liquid
testReadout: mass density (kg/m3)
Please give a number only; it is taken to be in kg/m3.

Here's what some known entries look like.
{"compound": "CCc1ccccc1 [ethylbenzene]", "testReadout": "mass density", "unitsLabel": "kg/m3", "quantitativeReadout": 867.28}
{"compound": "Cc1ccccc1 [toluene]", "testReadout": "mass density", "unitsLabel": "kg/m3", "quantitativeReadout": 866.8}
{"compound": "c1ccccc1 [benzene]", "testReadout": "mass density", "unitsLabel": "kg/m3", "quantitativeReadout": 878.96}

Kindly review the next compound as well.
[Q] Look up mass density of CN1CCCC1=O [N-methylpyrrolidone] and report it.
[A] 1032.66

----------
assayProtocol: refractive index (Na D-line) (dimensionless)
studyConditions: 293.1 K; 101.33 kPa; Liquid; Standard Abbe refractometry
refractive index: recorded values
Output spec: single numeric token, no unit.

Check out these entries, answers already filled in.
{"compound": "CN1CCCC1=O [N-methylpyrrolidone]", "refractive index": 1.4677}
{"compound": "CCc1ccccc1 [ethylbenzene]", "refractive index": 1.4962}
{"compound": "Cc1ccccc1 [toluene]", "refractive index": 1.4965}

Next item in the queue.
[Q] Return refractive index for the following compound: c1ccccc1 [benzene]
[A] 1.5009

----------
studyConditions: 333.15 K; 101 kPa; Liquid
± gives the expanded uncertainty stated by the source.
testReadout: mass density
A complete answer gives the number followed by the unit.

{"structureSmiles": "CCc1ccccc1", "mass density": "831.25 ± 0.91 kg/m3"}
{"structureSmiles": "c1ccccc1", "mass density": "835.66 ± 0.78 kg/m3"}
{"structureSmiles": "Cc1ccccc1", "mass density": "829.55 ± 2.1 kg/m3"}

Now for the compound whose mass density we want.
[Q] Tell me its mass density given CN1CCCC1=O as the entry.
[A] 996.28 ± 0.28 kg/m3

----------
studyConditions: 313.15 K; 101 kPa; Liquid
Entries and their measured mass density follow.
Quick note: give the figure in kg/m3, leave out the unit.

{"structureSmiles": "CCc1ccccc1", "unitsLabel": "kg/m3", "mass density": 849.38}
{"structureSmiles": "CN1CCCC1=O", "unitsLabel": "kg/m3", "mass density": 1014.27}

[Q] Quickly give me recorded mass density for Cc1ccccc1
[A] 848.23

[Q] Consider the molecule c1ccccc1 . State its measured mass density.
[A] 857.4

----------
Reported values of mass density for individual entries
studyConditions: 303.15 K; 101 kPa; Liquid
Write the number in kg/m3 without appending the unit.

Worked examples, 3 molecules total:
{"molecule": "c1ccccc1 [benzene]", "unitsLabel": "kg/m3", "mass density": 868.21}
{"molecule": "Cc1ccccc1 [toluene]", "unitsLabel": "kg/m3", "mass density": 857.53}
{"molecule": "CCc1ccccc1 [ethylbenzene]", "unitsLabel": "kg/m3", "mass density": 858.36}

Here's the next entry for you.
[Q] Provide mass density value for the following molecule: CN1CCCC1=O [N-methylpyrrolidone]
[A] 1023.42

----------
studyConditions: 343.15 K; 101 kPa; Liquid
Listing of recorded mass density by entry.
Answer format: numeric, kg/m3 implied, no suffix.

{"compound": "CCc1ccccc1 [ethylbenzene]", "mass density / kg/m3": 822.11}

[Q] Give recorded mass density. c1ccccc1 [benzene]
[A] 824.71

[Q] Return mass density (reported value) for this compound: CN1CCCC1=O [N-methylpyrrolidone]
[A] 987.39

[Q] Retrieve mass density measured for Cc1ccccc1 [toluene] and print it.
[A] 820.17
